molecular target: D(2) dopamine receptor (Homo sapiens); test: Negative allosteric modulation of recombinant human D2L receptor expressed in Flp-In CHO cells assessed as inhibition of dopamine-induced reduction in forskolin stimulated cAMP accumulation by measuring intrinsic efficacy of the modulator preincubated for 30 mins followed by forskolin stimulation and measured after 30 mins by BRET assay; type: functional, cell-based
Sequence (P14416 whole entry): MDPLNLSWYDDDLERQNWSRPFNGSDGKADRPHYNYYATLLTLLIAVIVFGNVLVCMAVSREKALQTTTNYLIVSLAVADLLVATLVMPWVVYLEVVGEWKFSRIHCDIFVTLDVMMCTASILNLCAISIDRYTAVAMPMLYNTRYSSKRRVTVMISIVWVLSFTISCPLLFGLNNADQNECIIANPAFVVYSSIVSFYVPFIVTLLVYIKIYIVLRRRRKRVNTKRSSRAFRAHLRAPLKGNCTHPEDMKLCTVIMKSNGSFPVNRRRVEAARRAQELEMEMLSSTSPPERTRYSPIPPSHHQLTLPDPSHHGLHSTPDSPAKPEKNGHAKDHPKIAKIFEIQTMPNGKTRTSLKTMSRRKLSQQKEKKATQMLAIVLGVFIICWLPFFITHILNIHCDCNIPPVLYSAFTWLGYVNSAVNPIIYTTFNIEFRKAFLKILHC
MEASURED QUANTITY: log(activity)
Give bare numbers.

Example entries begin here.
c1nc(NC2CC2)c2ccsc2n1 | -3
c1nc(NC2CCC2)c2c3c(sc2n1)CCCCC3 | 0
c1nc(NCC2CC2)c2c3c(sc2n1)CCCC3 | -0.06
c1nc(NC2CCC2)c2ccsc2n1 | 0
c1nc(N2CCCCC2)c2c3c(sc2n1)CCCC3 | 0
CCN(CC)c1ncnc2sc3c(c12)CCC3 | 0
c1nc(NC2CCC2)c2c(C3CCCCC3)csc2n1 | 0
c1nc(N2CCNCC2)c2c3c(sc2n1)CCCC3 | -3

// input: 8 compounds below; output: log(activity) for each
1. c1ccc(-c2cc3c(NC4CC4)ncnc3s2)cc1
2. CCN(CC)c1ncnc2sc3c(c12)CCCCCC3
3. c1nc(NC2CCC2)c2c3c(sc2n1)CCCC3
4. c1nc(NC2CCC2)c2c3c(sc2n1)CCCCCC3
5. CCN(CC)c1ncnc2scc(-c3ccccc3)c12
6. CCN(CC)c1ncnc2sccc12
7. c1nc(N2CCOCC2)c2c3c(sc2n1)CCCC3
8. c1nc(N2CCCC2)c2c3c(sc2n1)CCCC3

a:
1: -0.22; 2: 0; 3: -0.72; 4: 0; 5: -3; 6: 0; 7: 0; 8: 0

// input: 6 compounds below; output: log(activity) for each
1. CCN(CC)c1ncnc2sc3c(c12)CCCC3
2. CCN(CC)c1ncnc2sc(C)c(C)c12
3. c1nc(NC2CC2)c2c(C3CCCCC3)csc2n1
4. c1ccc(-c2cc3c(NC4CCC4)ncnc3s2)cc1
5. c1nc(NC2CC2)c2c3c(sc2n1)CCCC3
6. c1nc(NC2CC2)c2c3c(sc2n1)CCCCC3

a:
[0, 0, 0, 0, 0, 0]

q: Provide log(activity) value for the following compound: CC(C)(C)Nc1ncnc2sc3c(c12)CCCC3
a: 0
